# Lookup of reported glycan array binding signal (z-score) keyed by entry
- System Under Test: GlcNAc(b1-2)[GlcNAc(b1-4)]Man(a1-3)[GlcNAc(b1-4)][GlcNAc(b1-2)Man(a1-6)]Man(b1-4)GlcNAc(b1-4)GlcNAc
- Test Description: glycan array binding signal (z-score within array); higher = stronger binding
- Condition Context: glycan notation: IUPAC condensed, linker removed
Only a selection was taken, and the strongest signals are over-represented in it overall.
Hey, just send me the number, nothing else.

Would you please look over these solved cases?
1. Sebin1 (Coprinopsis cinerea), A8PEE3 (protein) MTSPFYAHIHNVQDDNTWRFTLIFANRATADEWWRAISEAPANTSIAKSITRVTPQYYTHDVNIWNIWNFFADGNIKSISERFRGRLFIVLENDRGGRGITVIPPVPIVDHVSGNWFYIRSKTAPHLFWYYDERRSSIYASKEKRTRFKISIRNPSSQTPKNAIMINTDDVTIHIKENLYVGVDNNLGHIIPTRAYRTFKFGELESGAIAGFDVVENIEERCSSTFDGASLSISGPDSSSPGEPWELV | 2.33
2. CD34 (Homo sapiens), P28906 (protein) MGSSHHHHHHSSGLVPRGSHMSTSLATSPTKPYTSSSPILSDIKAEIKCSGIREVKLTQGICLEQNKTSSCAEFKKDRGEGLARVLCGEEQADADAGAQVCSLLLAQSEVRPQCLLLVLANRTEISSKLQLMKKHQSDLKKLGILDFTEQDVASHQSYSQKT | -0.524
3. SEX4 (Arabidopsis thaliana), Q944A8 (protein) TQAMGAVLTYRHELGMNYNFIRPDLIVGSCLQTPEDVDKLRKIGVKTIFCLQQDPDLEYFGVDISSIQAYAKKYSDIQHIRCEIRDFDAFDLRMRLPAVVGTLYKAVKRNGGVTYVHCTAGMGRAPAVALTYMFWVQGYKLMEAHKLLMSKRSCFPKLDAIRNATIDILTGLKRKTVTLTLKDKGFSRVEISGLDIGWGQRIPLTLGKGTGFWILKRELPEGQFEYKYIIDGEWTHNEAEPFIGPNKDGHTNNYAKVVDDPTSVDGTTRERLSSEDPELLEEERSKLIQFLETCSEAEV | 0.008

Form: binder = DC-Sign-R (Homo sapiens), Q9H2X3 (protein) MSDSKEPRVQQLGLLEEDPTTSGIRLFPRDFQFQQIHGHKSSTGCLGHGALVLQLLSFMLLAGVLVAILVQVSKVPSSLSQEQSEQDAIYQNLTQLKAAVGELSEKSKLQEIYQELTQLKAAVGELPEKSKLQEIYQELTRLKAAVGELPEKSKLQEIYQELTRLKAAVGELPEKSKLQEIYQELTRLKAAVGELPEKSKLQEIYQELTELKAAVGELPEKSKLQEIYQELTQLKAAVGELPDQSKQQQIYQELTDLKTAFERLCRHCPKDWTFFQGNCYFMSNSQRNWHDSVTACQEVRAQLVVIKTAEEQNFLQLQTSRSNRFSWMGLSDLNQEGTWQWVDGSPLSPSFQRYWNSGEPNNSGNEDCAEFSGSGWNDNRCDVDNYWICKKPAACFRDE ; glycan array binding signal (z-score) = 2.91

Form: binder = Sebin2 (Coprinopsis cinerea), A8PE78 (protein) MTTPFYAYCHNVQDDNTWRLGLVFANRSTADEWWRAISEATSSIPITKSITRVTPQYYTHDIRVWNMYNFFVDGNIKSISDKFRGRLFITLEYDRSGRGVSVFPPLHIVDHVSGNWYYIRSKTAPHLFWFYDETRNAIYASKEKRTRFKVSIRNPSPQTPKDAIMINSDDVVIHIKESLYVGVDSYLGHIIPTRAYRTFKFGELEGGAIAGIEVAENAEERCSSTFDGASLYFVGPDSSSPGEPWELV ; glycan array binding signal (z-score) = 2.76
